test system: MKL-2; test: qHTS assay to identify novel small-molecules to repurpose for Merkel cell carcinoma treatment (AID 1296009); conditions: MCC and control cell lines, CellTiter-Glo viability, 72 h; series mostly up to 46 µM; note: nearly all actives have a fitted effect of over 60% in size
Inconclusive results are not listed. The source made the active and inactive calls. Calls come from the whole dose curve; as a rule, active = well fitted inhibition curve with a large enough effect; inconclusive = small, poorly fitted or top-dose-only effect; inactive = flat fitted curve, though single readings scatter.
// one of 1 = active, -1 = inactive, no free text

Some entries whose results are on file:
- COMPOUND: "N#Cc1ccc(Oc2ccc3c(c2)COB3O)cc1"
  GROUP: -1
- COMPOUND: "COc1cc2nccc(Oc3ccc(NC(=O)Nc4ccc(F)cc4F)c(F)c3)c2cc1OC"
  GROUP: -1
- COMPOUND: "CNc1nc(Nc2ccc(C(=O)N3CCOCC3)cc2OC)ncc1Cl"
  GROUP: -1
- COMPOUND: "CCCCCCOC(=O)N=C(N)c1ccc(NCc2nc3cc(C(=O)N(CCC(=O)OCC)c4ccccn4)ccc3n2C)cc1"
  GROUP: -1
- COMPOUND: "Cc1ccccc1C(C(=O)NC1CCCCC1)N(C(=O)CNc1ccc(C#N)cc1)c1cccc(F)c1 (centres undefined)"
  GROUP: -1
- COMPOUND: "CCN(CC)CCCCNc1nc2cc(Cl)c(Cl)cc2nc1-c1ccc(-c2cccs2)s1"
  GROUP: 1
- COMPOUND: "Nc1ncnc2c1ncn2[C@@H]1O[C@H](CO)[C@@H](O)[C@@H]1O"
  GROUP: 1
- COMPOUND: "CSc1cccc(Nc2ncc3cc(-c4c(Cl)cccc4Cl)c(=O)n(C)c3n2)c1"
  GROUP: -1
- COMPOUND: "CC(=O)Nc1cccc(-n2c(=O)n(C3CC3)c(=O)c3c(Nc4ccc(I)cc4F)n(C)c(=O)c(C)c32)c1"
  GROUP: -1
- COMPOUND: "C[C@H](c1ccc(F)cc1CCCC(=O)O)N(c1cc(F)ccc1F)S(=O)(=O)c1ccc(Cl)cc1"
  GROUP: -1

QUERY: What outcome does the record of this test show for Cc1cccc2c1CC[C@H](CN1CCC(c3c(Cl)cccc3Cl)CC1)C[C@@H]2O ?
RESULT: -1

QUERY: For C[C@@H](NC(=O)c1ncnc(N)c1Cl)c1ncc(C(=O)Nc2cc(C(F)(F)F)c(Cl)cn2)s1 , what call appears in the results of this test?
RESULT: -1

QUERY: Recorded test call requested for C[C@@H](N)c1ccc(C(=O)Nc2ccnc3[nH]ccc23)cc1
RESULT: -1

Source: PubChem BioAssay (NCATS)
